We begin with a simple list: items and their reported growth.
- Tested on: UO-31 renal
- Protocol details: NCI-60 one-dose screen, 48 h (100 = growth as untreated, 0 = no growth, -100 = all killed)
- Condition details: 10 µM
The panel holds about 83,000 compounds, 20% with a hit somewhere; the sample as a whole holds those more often.
The reply should contain only the number, in %.

Compound	Outcome measure	Measure unit	Result number
CCOC(=O)N/N=C/c1ccc(OC)c(OC)c1	growth	%	106
C=C(NC(=O)C(=C)NC(=O)c1csc(C2=NC3c4csc(n4)C4NC(=O)c5csc(n5)C(C(C)(O)C(C)O)NC(=O)C5CSC(=N5)C(=CC)NC(=O)C(C(C)O)NC(=O)c5csc(n5)C3(CC2)NC(=O)C(C)NC(=O)C(=C)NC(=O)C(C)NC(=O)C(C(C)CC)NC2C=Cc3c(C(C)O)cc(nc3C2O)C(=O)OC4C)n1)C(N)=O (stereo not drawn)	growth	%	64.7

Find the recorded growth belonging to CC(=O)O[C@@]12CO[C@@H]1C[C@H](O)[C@@]1(C)C(=O)[C@H](O)C3=C(C)[C@@H](OC(=O)[C@H](O)[C@@H](NC(=O)OC(C)(C)C)c4ccccc4)C[C@@](O)([C@@H](OC(=O)c4ccccc4)C12)C3(C)C (stereo partly drawn) and report it.
33.5
